Reported half-life at 5 µM values follow for various molecules
- protocol.notes: in vitro
- condition.set: mouse, liver microsomes
- Description: Half life in mouse liver microsomes at 5 uM by LC/MS/MS analysis
outcome.measure: half-life at 5 µM (min)

# molecule, outcome.measure, unit.annotation, assay.result
rows = [
    ("C1=CCOCc2cc(ccc2OCCN2CCCCC2)Nc2nccc(n2)-c2cccc(c2)COC1 (mixture of isomers)", "half-life at 5 µM", "min", 11),
    ("Cc1cnc2nc1-c1cccc(c1)COCC=CCOCc1cc(ccc1OCCN1CCCC1)N2", "half-life at 5 µM", "min", 40),
    ("CCN(CC)CCOc1ccc2cc1COCC=CCOCc1cccc(c1)-c1ccnc(n1)N2 (mixture of isomers)", "half-life at 5 µM", "min", 16),
    ("COc1ccc2cc1COCC=CCOCc1cc(ccc1OCCN1CCCC1)Nc1nccc-2n1 (mixture of isomers)", "half-life at 5 µM", "min", 29),
]

* * *

- protocol.notes: Apparent permeability from apical to basolateral side in human Caco2 cells at 5 uM after 2 hrs by LC/MS analysis at pH 7.4
- Assay type: ADME, cell-based
- condition.set: Caco-2, pH 7.4

# molecule, Papp A→B at 2 h, 5 µM [×10⁻⁶ cm/s]
rows = [
    ("C1=N/C2=N/c3ccc(OCCN4CCCC4)c(c3)COC/C=C/COCc3cccc(c3)C(=C1)N2 (mixture of isomers) [PACRITINIB]", 16),
]

* * *

Reported pIC50 values follow for various compounds
- tested.on: UniProt:P08684
- Sequence (P08684 whole entry): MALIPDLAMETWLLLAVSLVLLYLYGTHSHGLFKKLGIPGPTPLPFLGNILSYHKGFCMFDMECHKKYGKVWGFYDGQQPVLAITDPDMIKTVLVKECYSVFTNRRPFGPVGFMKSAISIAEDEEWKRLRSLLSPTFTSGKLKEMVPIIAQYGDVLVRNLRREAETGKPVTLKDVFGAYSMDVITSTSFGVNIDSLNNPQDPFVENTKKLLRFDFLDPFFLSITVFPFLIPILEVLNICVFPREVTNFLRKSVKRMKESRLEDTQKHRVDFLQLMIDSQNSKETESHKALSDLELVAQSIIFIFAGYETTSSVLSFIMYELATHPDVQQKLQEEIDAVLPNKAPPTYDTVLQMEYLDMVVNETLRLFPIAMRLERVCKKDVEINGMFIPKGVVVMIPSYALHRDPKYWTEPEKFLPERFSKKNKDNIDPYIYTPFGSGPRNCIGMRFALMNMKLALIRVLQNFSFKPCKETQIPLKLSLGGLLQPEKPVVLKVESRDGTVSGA
pIC50: −log10 of the molar value.

# compound, pIC50
rows = [
    ("C1=CCOCc2cc(ccc2OCCN2CCCCC2)Nc2nccc(n2)-c2cccc(c2)COC1 (mixture of isomers)", 6.43),
    ("CCN(CC)CCOc1ccc2cc1COCC=CCOCc1cccc(c1)-c1ccnc(n1)N2 (mixture of isomers)", 5.55),
]

* * *

- tested.on: Receptor-type tyrosine-protein kinase FLT3 (Homo sapiens, UniProt P36888)
- Sequence (P36888 whole entry): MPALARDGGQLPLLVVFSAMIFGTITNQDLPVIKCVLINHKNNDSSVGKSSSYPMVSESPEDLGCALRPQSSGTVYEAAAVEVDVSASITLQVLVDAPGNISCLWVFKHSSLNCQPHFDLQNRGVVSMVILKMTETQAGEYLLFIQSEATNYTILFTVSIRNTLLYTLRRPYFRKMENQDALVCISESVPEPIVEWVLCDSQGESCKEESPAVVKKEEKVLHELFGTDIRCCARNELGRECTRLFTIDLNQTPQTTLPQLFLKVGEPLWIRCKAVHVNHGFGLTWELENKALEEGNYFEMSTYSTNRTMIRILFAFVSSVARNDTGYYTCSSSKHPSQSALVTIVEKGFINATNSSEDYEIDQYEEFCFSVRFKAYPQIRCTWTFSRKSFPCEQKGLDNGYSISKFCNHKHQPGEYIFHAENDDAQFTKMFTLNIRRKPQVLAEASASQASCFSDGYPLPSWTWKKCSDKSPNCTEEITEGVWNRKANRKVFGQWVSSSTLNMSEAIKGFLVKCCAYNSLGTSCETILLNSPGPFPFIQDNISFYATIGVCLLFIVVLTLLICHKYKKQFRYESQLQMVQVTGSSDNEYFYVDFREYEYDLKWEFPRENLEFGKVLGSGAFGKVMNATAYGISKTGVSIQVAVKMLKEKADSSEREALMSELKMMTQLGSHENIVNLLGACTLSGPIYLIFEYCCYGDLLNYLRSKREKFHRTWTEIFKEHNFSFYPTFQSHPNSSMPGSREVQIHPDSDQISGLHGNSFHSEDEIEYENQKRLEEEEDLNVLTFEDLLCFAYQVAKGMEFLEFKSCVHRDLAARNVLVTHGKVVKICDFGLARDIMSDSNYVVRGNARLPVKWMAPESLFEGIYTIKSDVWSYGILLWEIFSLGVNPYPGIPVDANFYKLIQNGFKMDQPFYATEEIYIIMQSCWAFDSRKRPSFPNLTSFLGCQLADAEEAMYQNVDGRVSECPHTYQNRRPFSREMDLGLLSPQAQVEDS
- protocol.notes: Inhibition of recombinant FLT3 using Poly (Glu,Tyr) as substrate after 2 hrs by luminescence assay
outcome.measure: IC50 (nM)

# compound, assay.result
measured = [
    ("COc1ccc2cc1COCC=CCOc1cccc(c1)-c1ccnc(n1)N2 (mixture of isomers)", 78),
    ("C1=CCOCc2cccc(c2)-c2ccnc(n2)Nc2cc(cc(OCCN3CCOCC3)c2)COC1 (mixture of isomers)", 19),
    ("C1=CCOCc2cc(ccc2N2CCOCC2)Nc2nccc(n2)-c2cccc(c2)COC1 (mixture of isomers)", 32),
    ("COc1ccc2cc1COCC=CCOCc1cc(ccc1OCCN1CCCC1)Nc1nccc-2n1 (mixture of isomers)", 92),
]
